- System: HCT-116 colon
- Procedure details: NCI tumour cell line growth inhibition, 48 h
This section presents compounds with their documented TGI values.

Worked examples, 6 compounds total:
Problem: Give the value of TGI reported for the following: O=C1/C(=C/c2ccccc2)CCCc2ccccc21
Result: 30.7 µM

Problem: Give the value of TGI reported for the following: CC/C(Cc1ccccc1)=C(/c1ccc(O)cc1)c1ccc(OCCN2CCCC2)cc1
Result: 3.3 µM

Problem: Give the value of TGI reported for the following: CCC(=O)Nc1ccc(NCC(=O)Nc2ccc(OC)cc2)cc1
Result: 80.3 µM

Problem: Give the value of TGI reported for the following: COc1cc(Nc2ncnc(Nc3ccc4c(n3)NC(=O)C(C)(C)O4)n2)cc(OC)c1OC
Result: > 100 µM

Problem: Give the value of TGI reported for the following: OC12CCC3(O)c4ccccc4C3C1c1ccccc12 (stereo unspecified)
Result: > 100 µM

Problem: Give the value of TGI reported for the following: Cc1cc2c(cc1CO)N1Cc3cc(C)c(CO)cc3N(C2)C1
Result: > 100 µM

Next:
Problem: Give the value of TGI reported for the following: CCNC(=S)NNC(=O)CSc1nc2ccc(I)cc2c(=O)n1Cc1ccccc1
Result: > 77.1 µM

Problem: Give the value of TGI reported for the following: Cc1ccc(/S(Cc2ccccc2)=N\S(=O)(=O)c2ccc(C)cc2)cc1 (stereo unspecified)
Result: > 100 µM

Problem: Give the value of TGI reported for the following: COc1ccc(CCN2C(=O)CC34C=CC(CC3C2=O)O4)cc1OC (stereo unspecified)
Result: > 100 µM

Problem: Give the value of TGI reported for the following: COc1cc2nc(-c3cccc4cccnc34)nc(NC3CCN(Cc4ccccc4)CC3)c2cc1OC
Result: 0.338 µM

Problem: Give the value of TGI reported for the following: C#C[C@]1(O)CC[C@H]2[C@@H]3CCC4=C/C(=N/OC(=O)c5cccc6c(=O)c7ccccc7[nH]c56)CCC4[C@H]3CC[C@@]21CC (stereo partly specified)
Result: > 100 µM

* * *

- Test system: NCI/ADR-RES ovarian
- Procedure details: NCI tumour cell line growth inhibition, 48 h
Readout type: GI50

Problem: Identify measured GI50 obtained with NCI/ADR-RES ovarian for Cc1c(C)c2c(c(C)c1OCC(=O)O)CC[C@@](C)(CCC[C@@H](C)CCC[C@@H](C)CCCC(C)C)O2 .
Result: 78.7 µM

Next:
Problem: Identify measured GI50 obtained with NCI/ADR-RES ovarian for CCN(CC)c1ccc(/C=N/NC(=O)CSc2nc3ccccc3c(=O)n2Cc2ccc(S(N)(=O)=O)cc2)c(O)c1 .
Result: > 100 µM

Problem: Identify measured GI50 obtained with NCI/ADR-RES ovarian for CC12OC(C(=O)C13CCC3)C1C(=O)c3ccc4c(ccc5ccccc54)c3C(=O)C12 (stereo not given) .
Result: 4.45 µM

Problem: Identify measured GI50 obtained with NCI/ADR-RES ovarian for CCOc1ccc(C(C)=O)cc1NC(=O)c1cccc(-c2nnn(CC)n2)c1 .
Result: 0.511 µM

Problem: Identify measured GI50 obtained with NCI/ADR-RES ovarian for COc1ccc(-c2nc(N)c(C#N)c3c2CCOc2c-3ccc3ccccc23)cc1 .
Result: 17.5 µM

* * *

- Test system: MOLT-4 leukemia
- Procedure details: NCI tumour cell line growth inhibition, 48 h
Readout type: TGI

Problem: Give the value of TGI reported for the following: NC(N)=N/N=C/c1c(-c2cc([N+](=O)[O-])c(Cl)cc2Cl)nc2n1CCS2
Result: 58.6 µM

Problem: Give the value of TGI reported for the following: Cc1cc(C)nc(NS(=O)(=O)c2ccc(NC(=O)c3cc([N+](=O)[O-])cc([N+](=O)[O-])c3)cc2)n1
Result: 13.5 µM

Problem: Give the value of TGI reported for the following: CCN(CC)CCN1C(=O)C(=O)N(c2cccc3ccccc23)C1=O
Result: > 10 µM

Problem: Give the value of TGI reported for the following: CCOC(=O)C1=C(C(=O)OCC)C2(c3ccccc3)N(O1)c1ccccc1C2(C)C (centres undefined)
Result: > 100 µM

Problem: Give the value of TGI reported for the following: CCCCN1C(=O)/C(=c2\sc3n(c2=O)C2C(NN=3)N(CC)C(=O)N2CC)c2ccccc21 (centres undefined)
Result: > 100 µM

Next:
Problem: Give the value of TGI reported for the following: O=C(/C(=N/Nc1ccccc1)c1ccc([N+](=O)[O-])cc1)c1ccc([N+](=O)[O-])cc1
Result: > 100 µM

Problem: Give the value of TGI reported for the following: Cc1cc(NS(=O)(=O)c2ccc(Nc3c4ccccc4nc4c(C(=O)NCCO)cccc34)cc2)no1
Result: > 100 µM

Problem: Give the value of TGI reported for the following: COc1cccc2cc(C(=O)NC34CC5CC(CC(C5)C3)C4)c(=N)oc12
Result: 23.2 µM

* * *

- Test system: MCF7 breast
- Procedure details: NCI tumour cell line growth inhibition, 48 h
Where a SMILES comes first, the peptide text is derived from it. The star is where a group is joined. OSu = O=C1CCC(=O)N1O*
Readout type: TGI

Worked examples, 3 molecules total:
Problem: Identify measured TGI obtained with MCF7 breast for O=C(/C=C\n1cnc(-c2cc(C(F)(F)F)cc(C(F)(F)F)c2)n1)N1CC(F)(F)C1 .
Result: 1.64 µM

Problem: Identify measured TGI obtained with MCF7 breast for Oc1c(O)c(Cl)c(Cl)c(Cl)c1Cl .
Result: 16.2 µM

Problem: Identify measured TGI obtained with MCF7 breast for NCCCCC(NC(=O)C(N)Cc1ccc(O)cc1)C(=O)NC(Cc1ccc(O)cc1)C(=O)NC(CCCCN)C(=O)ON1C(=O)CCC1=O (centres undefined) (H-YKYK-OSu; configuration not given here) .
Result: > 100 µM

Note: attention shifts to another entry.
Problem: Identify measured TGI obtained with MCF7 breast for COc1ccc(C2C3=C(COC3=O)OC(C)(C)Oc3cc4c(cc32)OCO4)cc1OC (centres undefined) .
Result: > 90.9 µM

* * *

- System: CCRF-CEM leukemia
- Procedure details: NCI tumour cell line growth inhibition, 48 h; in the data active = GI50 below about 0.43 µM; inactive = the rest
A correct response names exactly one class from active, inactive

Some solved entries appear below for comparison.
Problem: Outcome? CCN(CC)c1ccc(/C=N/NC(=O)CSc2nc3ccccc3c(=O)n2Cc2ccc(S(N)(=O)=O)cc2)c(O)c1
Result: active

Problem: Outcome? Nc1nc2c(ccc3ccccc32)s1
Result: inactive

Problem: Outcome? CN1CCN(CCCOc2cccc3nc(Nc4ccc(F)c(F)c4)ccc23)CC1
Result: inactive

Problem: Outcome? CCc1nc2cc(/C=C/C(=O)NO)ccc2c(=O)n1CCc1ccc(OC)cc1
Result: inactive

Problem: Outcome? COc1cc(Nc2ncnc(Nc3ccc4c(n3)NC(=O)C(C)(C)O4)n2)cc(OC)c1OC
Result: inactive

Problem: Outcome? COc1ccc(-c2nn3ncccc3c2-c2ccnc(Nc3ccc4c(c3)OCCO4)n2)cc1
Result: inactive

Next:
Problem: Outcome? CCOC(=O)C#Cc1c(C(=O)OCC)nnn1[C@@H]1O[C@H](CO)[C@H]2OC3(CCCCC3)O[C@H]21
Result: inactive

Problem: Outcome? Oc1c(O)c(Cl)c(Cl)c(Cl)c1Cl
Result: inactive

Problem: Outcome? C[C@H](NC(=O)c1c(C(F)F)nn(C)c1Oc1cccc(C(F)(F)F)c1)c1ccc(C(=O)O)cc1
Result: inactive

Problem: Outcome? C=C(CN1c2ccccc2Sc2ccccc21)c1ccc(C(=O)Nc2ccccc2N)cc1
Result: active

* * *

This section presents molecules with their documented log10 TGI values.
- System: UO-31 renal
- Procedure details: NCI tumour cell line growth inhibition, 48 h
Give log10 of TGI, with TGI taken in µM.

Problem: Give the value of log10 TGI reported for the following: CC(C)=C[C@@H]1O[C@H](O)[C@@H]([C@H]2CC[C@@]3(C)[C@@H]4CC[C@H]5C(C)(C)C(=O)CC[C@@]56C[C@@]46CC[C@]23C)[C@@H]1O
Result: 1.46

Problem: Give the value of log10 TGI reported for the following: O=[N+]([O-])C(C(Cl)=C(Cl)Cl)=C(n1cncn1)n1cncn1
Result: 1.54

Problem: Give the value of log10 TGI reported for the following: CN1CCN(CCCOc2cccc3nc(Nc4ccc(F)c(F)c4)ccc23)CC1
Result: 0.95

Problem: Give the value of log10 TGI reported for the following: CC[C@@H](O)C[C@H]1CCC[C@@]2(C[C@@H]3OC(=O)/C=C/[C@@](C)(O)[C@@H](O)[C@H](C)[C@@H](O)[C@H](OC4CCC(N(C)C)C(C)O4)[C@@H](O)[C@](C)(O)CCCCC/C=C/[C@@H]4CC(C)(C)O[C@@]4(O)C[C@H](O2)[C@H]3C)O1 (stereo not given in full)
Result: 1.26

Next:
Problem: Give the value of log10 TGI reported for the following: CCC[CH2][Sn]([CH2]CCC)([O]C(=O)c1cccc(F)c1F)[O]C(=O)c1cccc(F)c1F
Result: 0.47

Problem: Give the value of log10 TGI reported for the following: Cc1c(C)c2c(c(C)c1OCC(=O)O)CC[C@@](C)(CCC[C@@H](C)CCC[C@@H](C)CCCC(C)C)O2
Result: 2.18

Problem: Give the value of log10 TGI reported for the following: CCOC(=O)C#Cc1c(C(=O)OCC)nnn1[C@@H]1O[C@H](CO)[C@H]2OC3(CCCCC3)O[C@H]21
Result: 0.52

Problem: Give the value of log10 TGI reported for the following: Cc1cc(NS(=O)(=O)c2ccc(Nc3c4ccccc4nc4c(C(=O)NCCO)cccc34)cc2)no1
Result: 2.00

Problem: Give the value of log10 TGI reported for the following: CCN(CC)c1ccc(N=Nc2ccc(-c3nc4cccn(C)c-4n3)cc2)cc1
Result: 1.61

Problem: Give the value of log10 TGI reported for the following: COc1cccc2nc3c(C(=O)NCCN(C)C)cccc3nc12
Result: 1.82

Problem: Give the value of log10 TGI reported for the following: COC[C@H]1C(=O)NCC(=O)N2N=CCC[C@H]2C(=O)N(O)[C@H](C)C(=O)O[C@@H](C(C)C)[C@H](NC(=O)[C@@](C)(O)[C@]2(O)CC[C@@H](CC(C)C)[C@H](C)O2)C(=O)N2NCCC[C@@H]2C(=O)N1O
Result: -0.47

Problem: Give the value of log10 TGI reported for the following: NC(N)=N/N=C/c1c(-c2cc([N+](=O)[O-])c(Cl)cc2Cl)nc2n1CCS2
Result: 1.58

Problem: Give the value of log10 TGI reported for the following: CC(=O)NC1C(OCc2ccccc2)OC(CO)C(O)C1OCC(=O)N[C@@H](C)C(=O)N[C@H](CCC(=O)NCCNc1ccc([N+](=O)[O-])c2[nH]c3ccccc3c(=O)c12)C(N)=O (stereo not given in full)
Result: 1.57

Problem: Give the value of log10 TGI reported for the following: Cc1cn2c(/C=N/N=C(N)N)c(-c3ccncc3)nc2s1
Result: 1.64

Problem: Give the value of log10 TGI reported for the following: COc1ccc(/C(Cl)=C(\C=O)c2ccc(Cl)cc2)cc1OC
Result: 1.45

Problem: Give the value of log10 TGI reported for the following: C=C1C(=O)O[C@H]2[C@H]1CC/C(COC(=O)NCCc1cccc(OC)c1)=C\CC[C@@]1(C)O[C@@H]21
Result: 0.46
